# system.under.test: HCV NS5B RdRp genotype 1b (Hepatitis C virus genotype 1b, UniProt Q9WMX2)
# Construct: The protein was expressed with an 18 amino acid C-terminal truncation to enhance the solubility; made in house; host or cells: E. coli BL21 (DE3), pET21a
# Sequence (Q9WMX2 2420-2992): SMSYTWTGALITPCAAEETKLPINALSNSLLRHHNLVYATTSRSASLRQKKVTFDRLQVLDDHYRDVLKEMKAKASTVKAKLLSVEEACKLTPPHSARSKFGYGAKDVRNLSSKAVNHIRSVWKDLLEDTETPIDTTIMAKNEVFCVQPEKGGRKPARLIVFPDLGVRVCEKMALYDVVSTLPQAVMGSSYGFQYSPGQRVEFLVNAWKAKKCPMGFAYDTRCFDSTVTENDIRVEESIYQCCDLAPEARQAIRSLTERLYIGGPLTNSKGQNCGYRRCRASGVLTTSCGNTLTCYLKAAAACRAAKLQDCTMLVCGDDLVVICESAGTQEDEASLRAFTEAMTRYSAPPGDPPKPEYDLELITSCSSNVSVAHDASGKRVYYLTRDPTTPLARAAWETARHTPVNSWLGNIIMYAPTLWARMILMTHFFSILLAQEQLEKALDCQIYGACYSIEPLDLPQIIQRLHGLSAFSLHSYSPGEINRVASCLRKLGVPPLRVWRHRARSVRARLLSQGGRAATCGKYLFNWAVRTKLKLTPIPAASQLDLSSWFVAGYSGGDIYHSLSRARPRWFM
# run.description: Modified HCV NS5B RdRp enzyme assay (with preincubation)
# Format: biochemical
# cond: modified method (with preincubation)
# Protocol: HCVNS5B RdRp cloning, expression, and purification. The cDNA encoding the NS5B protein of HCV, genotype 1b, was cloned into the pET21a expression vector. The protein was expressed with an 18 amino acid C-terminal truncation to enhance the solubility. […] Standard HCV NS5B RdRp enzyme assay. […] Plates were read on a Packard Top Count NXT after >1 hr incubation at room temperature. […] The IC50 values for compounds were determined using seven different [I]. […]
pIC50: −log10 of the molar value.
measure: pIC50

These recorded examples may help you get a feel for the data.
>>> result("O=C(NS(=O)(=O)Cc1ccccc1)c1ccc2c(C3CCCCC3)c3n(c2c1)CCCc1ncccc1-3")
"6.00 to 7.70"
>>> result("O=C(NS(=O)(=O)Cc1ccccc1)c1ccc2c(C3CCCCC3)c3n(c2c1)CC=Cc1ncccc1-3")
"6.00 to 7.70"
>>> result("CN(C)C(=O)C1=Cc2ccccc2-c2c(C3CCCCC3)c3ccc(C(=O)NS(=O)(=O)N(C)C)cc3n2C1")
"6.00 to 7.70"

Any idea what its pIC50 is? The compound is N#CC1C(=O)Cn2c(c(C3CCCCC3)c3ccc(C(=O)O)cc32)-c2ccccc21 (stereo not shown)
6.00 to 7.70
